# system.under.test: … (SEQ ID NO: 1)-HLA-A*02 complex (soluble, biotinylated) (human)
# protocol.notes: SPR (BIAcore) or BLI (Octet) per Example 3, biotinylated pHLA immobilised, 25 C
measured.endpoint: Kd
For clarity, give the value followed by its unit.

Given the entry ImmTAC molecule comprising a28 (SEQ ID NO: 6) and b58 (SEQ ID NO: 21) (TCR, part only; not given: anti-CD3 scFv, linker, TCR constants, part only) TCR alpha, part: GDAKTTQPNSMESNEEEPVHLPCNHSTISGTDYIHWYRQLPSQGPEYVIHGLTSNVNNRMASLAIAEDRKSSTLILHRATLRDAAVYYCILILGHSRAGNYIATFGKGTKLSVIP TCR beta, part: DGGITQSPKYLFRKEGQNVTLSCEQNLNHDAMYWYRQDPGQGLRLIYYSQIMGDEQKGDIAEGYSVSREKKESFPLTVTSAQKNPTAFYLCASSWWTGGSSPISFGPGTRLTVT , report its measured Kd.
0.079 nM

These data points were gathered from patent US20240368243A1.
